Data credit: patent US20240059757A1

Let's look at some binders and their measured pKd.
assayed.system: SARS-CoV RBD (Sino Biological) (SARS-CoV, UniProt P59594 306-527)
experiment.summary: BLI
pKd: −log10 of the molar value.

>  <binder>
S2X259 variant antibody, VH SEQ ID NO 446 / VL SEQ ID NO 412 (antibody, V domains shown) VH: QVQLVQSGAEVKKPGSSVKVSCKASGGIFNTYTISWVRQAPGQGLEWMGRIILISGIANYAQKIQGRVTITADKSTSTAYMELTSLRSDDTAVYYCARGFNGNYYGWGDDDAFDISGQGTLVTVYS VL: QTVLTQPPSVSGAPGQRVTISCTGSNSNIGAGYDVHWYQQLPGTAPKLLICGNSNRPSGVPDRFSGSKSGTSASLAITGLQAEDEADYYCQSYDSSLSGPNWVFGGGTKLTVL

>  <pKd>
8.25

$$$$
>  <binder>
S2X259 variant antibody, VH SEQ ID NO 408 / VL SEQ ID NO 444 (antibody, V domains shown) VH: QVQLVQSGAEVKKPGSSVKVSCKASGGIFNTYTISWVRQAPGQGLEWMGRIILMSGMANYAQKIQGRVTITADKSTSTAYMELTSLRSDDTAVYYCARGFNGNYYGWGDDDAFDISGQGTLVTVYS VL: QTVLTQPPSVSGAPGQRVTISCTGSNSNIGAGYDVHWYQQLPGTAPKLLIYGNSNRPSGVPDRFSGSKSGTSASLAITGLQAEDEADYYCQSYDSSLSGPNWVFGGGTKLTVL

>  <pKd>
8.87

$$$$
>  <binder>
S2X259 variant antibody, VH SEQ ID NO 408 / VL SEQ ID NO 442 (antibody, V domains shown) VH: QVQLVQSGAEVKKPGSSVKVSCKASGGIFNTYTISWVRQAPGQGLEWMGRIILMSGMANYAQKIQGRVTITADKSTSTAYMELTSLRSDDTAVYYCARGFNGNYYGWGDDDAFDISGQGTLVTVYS VL: QTVLTQPPSVSGAPGQRVTISCTGSNSNIGAGYDVHWYQQLPGTAPKLLISGNSNRPSGVPDRFSGSKSGTSASLAITGLQAEDEADYYCQSYDSSLSGPNWVFGGGTKLTVL

>  <pKd>
9.40

$$$$
>  <binder>
S2X259 variant antibody, VH SEQ ID NO 408 / VL SEQ ID NO 445 (antibody, V domains shown) VH: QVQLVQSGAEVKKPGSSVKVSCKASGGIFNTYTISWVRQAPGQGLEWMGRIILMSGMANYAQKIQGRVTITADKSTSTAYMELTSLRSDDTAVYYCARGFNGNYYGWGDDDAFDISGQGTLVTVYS VL: QTVLTQPPSVSGAPGQRVTISCTGSNSNIGAGYDVHWYQQLPGTAPKLLIVGNSNRPSGVPDRFSGSKSGTSASLAITGLQAEDEADYYCQSYDSSLSGPNWVFGGGTKLTVL

>  <pKd>
9.28

$$$$
>  <binder>
S2X259 variant antibody, VH SEQ ID NO 408 / VL SEQ ID NO 443 (antibody, V domains shown) VH: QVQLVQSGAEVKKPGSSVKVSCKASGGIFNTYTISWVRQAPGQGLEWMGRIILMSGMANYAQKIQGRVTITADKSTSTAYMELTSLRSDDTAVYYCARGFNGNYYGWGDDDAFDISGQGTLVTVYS VL: QTVLTQPPSVSGAPGQRVTISCTGSNSNIGAGYDVHWYQQLPGTAPKLLIAGNSNRPSGVPDRFSGSKSGTSASLAITGLQAEDEADYYCQSYDSSLSGPNWVFGGGTKLTVL

>  <pKd>
9.28

$$$$
